Test system: giant foxtail (Setaria faberii)
Assay: Test A preemergence
Assay type: in vivo
Details: Setaria faberi, pre-emergence, 240 h, 500 g ai/ha, preemergence; 0 to 100 scale (0 no effect, 100 complete control); read-out: Plant response rating, Foxtail, Giant
reported_metric: pest or weed control at 500 g/ha (%)
Expressed in %, but write only the number.

Some solved cases for reference:
O=C1NC[C@H](c2cncs2)[C@H]1C(=O)Nc1ccccc1F ... 0
N#Cc1cc([C@H]2CNC(=O)[C@]2(O)C(=O)Nc2cccc(F)c2F)ccc1F ... 0
O=C1NCC(c2ccccc2)C1C(=O)Nc1ccc(C(F)(F)F)cc1 (centres unmarked) ... 0

Exercise: Tell me measured pest or weed control at 500 g/ha for `CN1C[C@H](c2ccc(C(F)(F)F)cc2)[C@@H](C(=O)Nc2cccc(C#N)c2F)C1=O` please.
Key: 100

Exercise: Tell me measured pest or weed control at 500 g/ha for `CN1CC[C@H](c2cccc(C(F)(F)F)c2)[C@@H](C(=O)Nc2ccc(F)c(F)c2F)C1=O` please.
Key: 90

---

Below, each of the compounds is paired with its reported pest or weed control at 250 g/ha value.
Tested on: giant foxtail (Setaria faberi)
Test: Test G Pre-Emergence Protocol
Type: in vivo
Details: Setaria faberi, pre-emergence, 312 h, 250 g ai/ha, evaluated after 13 days, read-out: Foxtail, Giant damage rating (100=total damage to plant; 0=no damage to plant)

CN1C[C@H](c2cccc(C(F)(F)F)c2)[C@@H](C(=O)Nc2cc(C#N)ccn2)C1=O (racemic) ... 0%
CN1C[C@H](c2cccc(C(F)(F)F)c2)[C@@H](C(=O)Nc2cccc(O)c2F)C1=O (racemic) ... 30%
COC(=O)c1cc([C@H]2CN(C)C(=O)[C@@H]2C(=O)Nc2ccccc2F)ccc1F (racemic) ... 0%

Continue with the compound presented below.
Exercise: Tell me its pest or weed control at 250 g/ha on giant foxtail (Setaria faberi): Cc1cccc(NC(=O)[C@H]2C(=O)N(C)C[C@@H]2c2ccc(C(F)(F)F)cc2)c1C#N (racemic)
Key: 90%

---

Test system: ryegrass, Italian (Italian ryegrass, Lolium multiflorum)
Experiment: Test A postemergence
Type: in vivo
Settings: Lolium multiflorum, post-emergence, 240 h, 125 g ai/ha, postemergence; visual injury on 0 to 100 scale (0 no effect, 100 complete control), approx. 10 d; read-out: Ryegrass, Italian plant response rating
reported_metric: pest or weed control at 125 g/ha (%)
Expressed in %, but write only the number.

Cc1cc([C@H]2CNC(=O)[C@@H]2C(=O)Nc2ccccc2F)ccc1C(F)(F)F ... 30

Exercise: Tell me measured pest or weed control at 125 g/ha for `O=C(Nc1ccc(F)c(F)c1F)[C@H]1C(=O)N(O)CC[C@@H]1c1ccc(C(F)(F)F)cc1` please.
Key: 0

Exercise: Tell me measured pest or weed control at 125 g/ha for `CN1C[C@H](c2ccc3c(c2)OCO3)[C@@H](C(=O)Nc2cccc(F)c2F)C1=O` please.
Key: 30

Exercise: Tell me measured pest or weed control at 125 g/ha for `CN1C[C@H](c2cc(F)cc(F)c2)[C@@H](C(=O)Nc2ccncc2F)C1=O` please.
Key: 0

---

Below, each of the compounds is paired with its reported Plant response rating, Blackgrass value.
System: blackgrass (Alopecurus myosuroides)
Experiment: Test A postemergence
Format: in vivo
Details: 125 g ai/ha, postemergence; visual rating after approx. 10 d, 0 to 100 scale (0 no effect, 100 complete control)
Output: the number by itself.

CN1CC(c2cc(F)cc(F)c2)C(C(=O)Nc2cccc(F)c2F)C1=O (stereo not drawn) ... 60
O=C1NCC(c2cccc(C(F)(F)F)c2F)C1C(=O)Nc1ccc(F)cc1F (stereo not drawn) ... 30

Exercise: Tell me measured Plant response rating, Blackgrass for Cc1ccc(C2CN(C)C(=O)C2C(=O)Nc2ccccc2F)c(F)c1 (stereo not drawn) please.
Key: 30

Exercise: Tell me measured Plant response rating, Blackgrass for Cc1ccc(C2CN(C)C(=O)C2C(=O)Nc2ccccc2S(C)(=O)=O)cc1 (stereo not drawn) please.
Key: 60

Exercise: Tell me measured Plant response rating, Blackgrass for CN1CC(c2ccc(F)c(C(F)(F)F)c2)C(C(=O)Nc2ccccc2S(C)(=O)=O)C1=O (stereo not drawn) please.
Key: 40

Exercise: Tell me measured Plant response rating, Blackgrass for O=C1NCC(c2cc(C(F)(F)F)cc(C(F)(F)F)c2)C1C(=O)Nc1cccc(F)c1F (stereo not drawn) please.
Key: 20

Exercise: Tell me measured Plant response rating, Blackgrass for C#Cc1cccc(C2CNC(=O)C2C(=O)Nc2cccc(F)c2F)c1 (racemic) please.
Key: 0

Exercise: Tell me measured Plant response rating, Blackgrass for CN1CC(c2ccc(C(C)(F)F)cc2)C(C(=O)Nc2ccccc2S(C)(=O)=O)C1=O (stereo not drawn) please.
Key: 50

Exercise: Tell me measured Plant response rating, Blackgrass for O=C1NCC(c2cccc(Br)c2)C1C(=O)Nc1ccccc1F (racemic) please.
Key: 20

---

Below, each of the molecules is paired with its reported Plant response rating, Ragweed value.
Test system: ragweed (common ragweed, Ambrosia elatior)
Assay: Test A postemergence
Format: in vivo
Details: 500 g ai/ha, postemergence; 0 to 100 scale, 0 no effect, 100 complete control
Output: the number by itself.

Some solved cases for reference:
CC(C)Oc1cccc(C2CN(C)C(=O)C2C(=O)Nc2ccc(F)cc2F)c1 (centres unmarked) ... 50
O=C1NCC(c2ccc(Br)cc2)C1C(=O)Nc1cccc(F)c1F (centres unmarked) ... 20
Cc1c(F)ccc(NC(=O)C2C(=O)NCC2c2cccc(C(F)(F)F)c2)c1F (centres unmarked) ... 0
CCc1ccc(C2CNC(=O)C2C(=O)Nc2ccccc2F)cc1 (centres unmarked) ... 30

Continue with the molecule presented below.
Exercise: Tell me its Plant response rating, Ragweed on ragweed (common ragweed, Ambrosia elatior): O=C1NCC(c2ccc(Br)cc2)C1C(=O)Nc1ccccc1F (centres unmarked)
Key: 0

---

Tested on: velvetleaf (Abutilon theophrasti)
Test: Test G Pre-Emergence Protocol
Type: in vivo
Details: Abutilon theophrasti, pre-emergence, 312 h, 250 g ai/ha, evaluated after 13 days, read-out: Velvetleaf damage rating (100=total damage to plant; 0=no damage to plant)
Below, each of the compounds is paired with its reported pest or weed control at 250 g/ha value.
Expressed in %, but write only the number.

CN1C[C@H](c2cccc(C(F)(F)F)c2)[C@@H](C(=O)Nc2cnccc2C#N)C1=O (racemic) [Compound 1761] ... 0

Exercise: Tell me measured pest or weed control at 250 g/ha for CN1C[C@H](c2ccc(C(F)(F)F)cc2)[C@@H](C(=O)Nc2cnccc2O)C1=O (racemic) [Compound 1466] please.
Key: 0

Exercise: Tell me measured pest or weed control at 250 g/ha for CCc1nccc(NC(=O)[C@@H]2C(=O)N(C)C[C@H]2c2ccc(C(F)(F)F)cc2)c1Cl (racemic) [Compound 1538] please.
Key: 0

Exercise: Tell me measured pest or weed control at 250 g/ha for CCCOc1cc(C2CN(C)C(=O)C2C(=O)Nc2cccc(F)c2F)cc(C(F)(F)F)c1 (stereo not shown) [Compound 1725] please.
Key: 0

Exercise: Tell me measured pest or weed control at 250 g/ha for CN1C[C@@H](c2ccc(C(F)(F)F)cc2)[C@H](C(=O)Nc2nccc(C(F)(F)F)n2)C1=O (racemic) [Compound 1547] please.
Key: 0

Exercise: Tell me measured pest or weed control at 250 g/ha for CN1C[C@@H](c2ccc(C(F)(F)F)cc2)[C@H](C(=O)Nc2ncc[nH]2)C1=O (racemic) [Compound 1536] please.
Key: 0

Exercise: Tell me measured pest or weed control at 250 g/ha for CCOc1cc(C2CN(C)C(=O)C2C(=O)Nc2cccc(F)c2F)ccc1Cl (stereo not shown) [Compound 1686] please.
Key: 40

Exercise: Tell me measured pest or weed control at 250 g/ha for CN1C[C@@H](c2ccc(C(F)(F)F)nc2)[C@H](C(=O)Nc2cccc(F)n2)C1=O (racemic) [Compound 1491] please.
Key: 0

---

System: wheat (Triticum aestivum)
Assay: Test A postemergence
Type: in vivo
Conditions: Triticum aestivum, post-emergence, 240 h, 125 g ai/ha, Postemergence; visual injury after approximately 10 d; 0 to 100 scale where 0 is no effect and 100 is complete control; read-out: Plant response rating, Wheat
Below, each of the compounds is paired with its reported plant injury at 125 g/ha value.
Expressed in %, but write only the number.

CN1CC[C@H](c2ccc(OC(F)(F)F)cc2)[C@@H](C(=O)Nc2cccc(F)c2F)C1=O [Compound 999] ... 0

Exercise: Tell me measured plant injury at 125 g/ha for CN1CC[C@H](c2ccc(OC(F)(F)F)cc2)[C@@H](C(=O)Nc2ccccc2C(F)(F)F)C1=O [Compound 998] please.
Key: 0

Exercise: Tell me measured plant injury at 125 g/ha for CC(C)=CC1CNC(=O)C1C(=O)Nc1cccc(F)c1F (stereo not drawn) [Compound 1012] please.
Key: 0
